# experimental_system: OsWRKY34 (Oryza sativa, UniProt Q0JBA9 1-250)
# Sequence (Q0JBA9 entry or part of it): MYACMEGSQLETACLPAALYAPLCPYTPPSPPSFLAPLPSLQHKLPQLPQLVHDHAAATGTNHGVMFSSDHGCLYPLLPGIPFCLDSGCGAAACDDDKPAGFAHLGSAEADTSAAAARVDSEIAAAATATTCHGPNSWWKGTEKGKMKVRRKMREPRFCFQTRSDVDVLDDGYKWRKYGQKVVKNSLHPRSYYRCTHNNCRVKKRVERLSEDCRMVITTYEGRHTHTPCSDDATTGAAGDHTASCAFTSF
# test_summary: protein-binding microarray (RPBM); PBS, 2% BSA, 51.3 ng/ul salmon testes DNA, 50 uM zinc acetate, 200 nM TF, 25 C, 1 h; high values mean tight binding
# condition_notes: protein: recombinant; tags: N-terminal polyhistidine and DsRed monomer fusion (pET32a); label: CyDye5-dUTP incorporated in the synthesized complementary strand; 3' TTTTT single-stranded linker to array surface; dsDNA, one strand shown
The full ranking holds about 68,000 sequences; the median of “fluorescence intensity (a.u.)” is about 9,100, and the highest 2% start at about 16,000. Shown is part of a subset that was picked to be rich in the highest values.
parameter: binding signal

TTGCTGTCTTGCGTGTTCATGCTGCCCCGCGGGCGTTGAGCGGAGTCACCTAGTGCAG    9010 fluorescence intensity (a.u.)
CCACTGCATACCAACACCAACCACTGTACTAGCACTACTACGGAGTCACCTAGTGCAG    8980 fluorescence intensity (a.u.)
TCTTTTTTTTTTTCATTATTGTTTGAATATTGATTTCACACGGAGTCACCTAGTGCAG    8780 fluorescence intensity (a.u.)

Report binding signal for each item below.
1. GATGAGTGGTGATTGGTGAAGATATCTGGTGGTTTTGGGACGGAGTCACCTAGTGCAG
2. GGAGGAGGGGTGGGGTGTTGAGCCCTGGAGAAGCCACCGCCGGAGTCACCTAGTGCAG
3. GTGGGCCCCGCCCGTGTGATCGTGTCTCTGTTTCGTTTTCCGGAGTCACCTAGTGCAG
4. CGCCTCCGGCCTCCTCACGCACTGCCGCACCACGTCGCACCGGAGTCACCTAGTGCAG
5. TTTTGGTGGGTGGGTTTGGGACGTTGGATTGGTGGTGGACCGGAGTCACCTAGTGCAG
6. TACTCCCTCCGTTTTTTAATAGATGACGCCGTTGACTTTTCGGAGTCACCTAGTGCAG
7. TTCAAAATGTTTGACACCATTGACTTTTTAGCATATGTTTCGGAGTCACCTAGTGCAG
8. CTTCTCCTGCTTGTTTCCTTGTCTTGTGGTGCATCACATCCGGAGTCACCTAGTGCAG

1: 8630 fluorescence intensity (a.u.); 2: 21000 fluorescence intensity (a.u.); 3: 12100 fluorescence intensity (a.u.); 4: 9020 fluorescence intensity (a.u.); 5: 12600 fluorescence intensity (a.u.); 6: 16100 fluorescence intensity (a.u.); 7: 10000 fluorescence intensity (a.u.); 8: 8810 fluorescence intensity (a.u.)

For every record below, what is its binding signal?
1. GTCCTGCTACGCATACTCTCCCCTCTGACTCTTTGCGCCACGGAGTCACCTAGTGCAG
2. TACCGCCTGAAATCCAACATTATTATGCACTGTAATTTACCGGAGTCACCTAGTGCAG

8250 fluorescence intensity (a.u.)
8170 fluorescence intensity (a.u.)

Please give binding signal, item by item, for the list that follows.
1. TTCGGTTGGGTGGAGGAAGCGCGGGTGAAAAAGGTGGGGACGGAGTCACCTAGTGCAG
2. ACCCTCCGTTTCTAAATATTTAACACCGTTGACTTTTTAGCGGAGTCACCTAGTGCAG
3. AAAATGTTTGACACCGTTGACTTTTTAGCATATGTTTGACCGGAGTCACCTAGTGCAG
4. ACCCACCACATCGACGCGACCACACTCCACACAAGCCATGCGGAGTCACCTAGTGCAG
5. CAGAGTGCAAGCCAATCATCGCCACCACGCTACGCTACACCGGAGTCACCTAGTGCAG
6. GCCTATCCTGCCCTCTCTACTACCACCCTTATCGATCTCTCGGAGTCACCTAGTGCAG
7. AATGGGTGTTTTTTTAGTTGTTGTGTGTGTTTGGACGATTCGGAGTCACCTAGTGCAG

["10600 fluorescence intensity (a.u.)", "23700 fluorescence intensity (a.u.)", "30800 fluorescence intensity (a.u.)", "10100 fluorescence intensity (a.u.)", "8130 fluorescence intensity (a.u.)", "8340 fluorescence intensity (a.u.)", "10400 fluorescence intensity (a.u.)"]

Field: binding signal. Fill in for each record below.
1. TGGATCTGGTGTGTTAGTTTGGATTTGTGTTTGTCCTTTTCGGAGTCACCTAGTGCAG
2. ATCCGTTTTATATTATAAATCATTTGACTTTTTCTATTAGCGGAGTCACCTAGTGCAG
3. TACTATACCACTTACTACTAAGTATTCTGCGCACAAACAGCGGAGTCACCTAGTGCAG
4. TCGAAATGTTTGACACCGTTGACTTTTTAGCATATGTTTGCGGAGTCACCTAGTGCAG

12600 fluorescence intensity (a.u.)
8510 fluorescence intensity (a.u.)
10800 fluorescence intensity (a.u.)
33700 fluorescence intensity (a.u.)
